System: T47D
assay notes: Antiproliferative activity against human T47D cells after 72 hrs by CCK8 assay
Format: functional, cell-based
pIC50: −log10 of the molar value. Structures can show the parent of a compound that is named as a salt.

>  <molecule>
CC[C@@]1(O)C(=O)OCc2c1cc1n(c2=O)Cc2cc3ccccc3nc2-1

>  <result comparator>
=

>  <pIC50>
5.68

$$$$
>  <molecule>
Oc1cccc(-c2cc(-c3ccccc3Cl)nc3c2oc2ccccc23)c1

>  <result comparator>
=

>  <pIC50>
5.82

$$$$
>  <molecule>
Oc1ccc(-c2cc(-c3cccc(Cl)c3)c3oc4ccccc4c3n2)cc1

>  <result comparator>
<

>  <pIC50>
4.30

$$$$
>  <molecule>
Oc1cccc(-c2cc(-c3cccc(Cl)c3)c3oc4ccccc4c3n2)c1

>  <result comparator>
=

>  <pIC50>
5.92

$$$$
>  <molecule>
Oc1ccccc1-c1cc(-c2ccc(Cl)cc2)nc2c1oc1ccccc12

>  <result comparator>
<

>  <pIC50>
4.30

$$$$
>  <molecule>
Oc1cccc(-c2cc(-c3ccc(Cl)cc3)c3oc4ccccc4c3n2)c1

>  <result comparator>
=

>  <pIC50>
5.70

$$$$
>  <molecule>
COc1cc([C@@H]2c3cc4c(cc3[C@@H](O[C@@H]3O[C@@H]5CO[C@@H](C)O[C@H]5[C@H](O)[C@H]3O)[C@H]3COC(=O)[C@H]23)OCO4)cc(OC)c1O [ETOPOSIDE]

>  <result comparator>
=

>  <pIC50>
5.15

$$$$
>  <molecule>
COc1cccc2c1C(=O)c1c(O)c3c(c(O)c1C2=O)C[C@@](O)(C(=O)CO)C[C@@H]3O[C@H]1C[C@H](N)[C@H](O)[C@H](C)O1 [DOXORUBICIN HYDROCHLORIDE]

>  <result comparator>
=

>  <pIC50>
6.52

$$$$
>  <molecule>
Oc1ccccc1-c1cc(-c2ccccc2Cl)c2oc3ccccc3c2n1

>  <result comparator>
=

>  <pIC50>
5.52

$$$$

###

Reported values of pIC50 for individual entries
System: HeLa
assay notes: Antiproliferative activity against human HeLa cells after 72 hrs by CCK8 assay
Assay type: functional, cell-based
pIC50: −log10 of the molar value.

>  <smiles data>
CC[C@@]1(O)C(=O)OCc2c1cc1n(c2=O)Cc2cc3ccccc3nc2-1

>  <result comparator>
=

>  <pIC50>
7.05

$$$$
>  <smiles data>
Oc1ccc(-c2cc(-c3ccccc3Cl)c3oc4ccccc4c3n2)cc1

>  <result comparator>
=

>  <pIC50>
4.80

$$$$
>  <smiles data>
Oc1ccccc1-c1cc(-c2ccc(Cl)cc2)c2oc3ccccc3c2n1

>  <result comparator>
<

>  <pIC50>
4.30

$$$$
>  <smiles data>
Oc1ccc(-c2cc(-c3ccc(Cl)cc3)nc3c2oc2ccccc23)cc1

>  <result comparator>
=

>  <pIC50>
5.37

$$$$
>  <smiles data>
Oc1cccc(-c2cc(-c3ccc(Cl)cc3)nc3c2oc2ccccc23)c1

>  <result comparator>
=

>  <pIC50>
5.24

$$$$
>  <smiles data>
Oc1ccc(-c2cc(-c3cccc(Cl)c3)nc3c2oc2ccccc23)cc1

>  <result comparator>
=

>  <pIC50>
6.05

$$$$
>  <smiles data>
Oc1ccccc1-c1cc(-c2ccccc2Cl)c2oc3ccccc3c2n1

>  <result comparator>
=

>  <pIC50>
4.96

$$$$
>  <smiles data>
Oc1cccc(-c2cc(-c3cccc(Cl)c3)c3oc4ccccc4c3n2)c1

>  <result comparator>
=

>  <pIC50>
5.19

$$$$
>  <smiles data>
Oc1ccccc1-c1cc(-c2cccc(Cl)c2)nc2c1oc1ccccc12

>  <result comparator>
=

>  <pIC50>
5.28

$$$$
>  <smiles data>
Oc1ccccc1-c1cc(-c2ccccc2Cl)nc2c1oc1ccccc12

>  <result comparator>
=

>  <pIC50>
5.55

$$$$
>  <smiles data>
Oc1ccc(-c2cc(-c3ccc(Cl)cc3)c3oc4ccccc4c3n2)cc1

>  <result comparator>
=

>  <pIC50>
4.93

$$$$
